// CC50 at 48 h lookup, one value per entry
experiment: Cytotoxicity MTT assay (0.1–1000 µM), CC50; type: cell-based, Mus musculus; settings: Mus musculus, NCTC clone 929 cells, NCTC clone 929, MTT, 48 h; read-out: CC50 Normal Cell Lines NCTC Clone 929
MEASURED_PROPERTY: CC50 at 48 h (µM)

[[record]]
compound = "Cc1c(C)[n+](OCc2ccccc2)cn1Cc1ccccc1C(F)(F)F.[Br-] [Compound 8c]"
unit_tag = "µM"
obs_value = 28.5

[[record]]
compound = "Cc1c(C)[n+](OCc2ccccc2)cn1Cc1cccc(OC(F)(F)F)c1.[Br-] [Compound 8b]"
unit_tag = "µM"
obs_value = 90.7

[[record]]
compound = "Cc1c(C)[n+](OCc2ccccc2)cn1Cc1ccc(C(F)(F)F)cc1.[Br-] [Compound 8d]"
unit_tag = "µM"
obs_value = 283

[[record]]
compound = "Cc1c(C)[n+](Cc2cccc(C(F)(F)F)c2)cn1Cc1ccccc1.[Cl-] [Compound 1g]"
unit_tag = "µM"
obs_value = 30

[[record]]
compound = "Cc1c(C)[n+](Cc2cccc(OC(F)(F)F)c2)cn1Cc1ccccc1.[Cl-] [Compound 1f]"
unit_tag = "µM"
obs_value = 48.3

[[record]]
compound = "FC(F)(F)c1cccc(C[n+]2cn(Cc3ccccc3)c(-c3ccccc3)c2-c2ccccc2)c1.[Br-] [Compound 9a]"
unit_tag = "µM"
obs_value = 3.75

[[record]]
compound = "Cc1c(C)[n+](Cc2cccc(F)c2)cn1Cc1ccccc1.[Cl-] [Compound 1e]"
unit_tag = "µM"
obs_value = 79.2

[[record]]
compound = "Cc1c(C)[n+](OCc2ccccc2)cn1Cc1cccc(F)c1.[Br-] [Compound 8a]"
unit_tag = "µM"
obs_value = 257


---

test system: HepG2 cells; test: Cytotoxicity MTT assay (0.1–1000 µM), CC50; type: cell-based, Human; details: 48 h, read-out: CC50 Cancer Cell Lines HepG2
MEASURED_PROPERTY: CC50 (µM)

[[record]]
molecule = "Cc1c(C)[n+](Cc2cccc(F)c2)cn1Cc1ccccc1 [1e[PF6]]"
obs_value = 317


---

assay: Cytotoxicity MTT assay (0.1–1000 µM), CC50; assay type: cell-based, Mus musculus; conditions: Mus musculus, NCTC clone 929 cells, Table S2, range 0.1-1000 µM, NCTC clone 929; read-out: Cell line (CC50 M) NCTC clone 929
MEASURED_PROPERTY: CC50 at 48 h (µM)

[[record]]
molecule = "Cc1c(C)n(Cc2ccccc2)c(=S)n1Cc1ccccc1 [Compound 10a]"
measured_property = "CC50 at 48 h"
obs_value = 46


---

experiment: Cytotoxicity screening at 10 µM (MTT); assay type: cell-based, Human; settings: human, HeLa cells, read-out: Cell line (viability %) HeLa
Rule: viability at 48 h, 10 µM below 8% gives yes, anything at or above gives no.

[[record]]
compound = "c1c[n+](C23CC4CC(CC(C4)C2)C3)cn1C12CC3CC(CC(C3)C1)C2 [Compound 2a, 1,3-diadamantyl imidazolium bromide, reference compound]"
label = "no"

[[record]]
compound = "COc1cccc(Cn2c[n+](Cc3ccccc3)c(-c3ccccc3)c2-c2ccccc2)c1 [9c[PF6]]"
label = "yes"

[[record]]
compound = "COc1cccc(Cn2c[n+](Cc3ccccc3)c(C)c2C)c1 [Compound 1c, lepidiline C, reference compound]"
label = "no"

[[record]]
compound = "c1ccc(Cn2c[n+](Cc3ccccc3)c(-c3ccccc3)c2-c2ccccc2)cc1 [9b[PF6]]"
label = "yes"

[[record]]
compound = "c1c[n+](OC23CC4CC(CC(C4)C2)C3)cn1OC12CC3CC(CC(C3)C1)C2"
label = "yes"

[[record]]
compound = "Cc1c(C)[n+](Cc2ccccc2)cn1Cc1ccccc1 [Compound 1a, lepidiline A, reference compound]"
label = "no"

[[record]]
compound = "COc1cccc(Cn2c(-c3ccccc3)c(-c3ccccc3)n(Cc3ccccc3)c2=S)c1 [Compound 10d]"
label = "no"

[[record]]
compound = "COc1cccc(Cn2c(C)c(C)n(Cc3ccccc3)c2=S)c1 [Compound 10b]"
label = "no"

[[record]]
compound = "Cc1c(C)n(Cc2ccccc2)c(=S)n1Cc1ccccc1 [Compound 10a]"
label = "no"

